Measured Inhibition, listed per entry for reference.
System: Acinetobacter baumannii
EXPERIMENT DESCRIPTION: Antibacterial activity against Acinetobacter baumannii ATCC 19606 (CO-ADD:GN_034); MIC in CAMBH media using NBS plates, by Resazurin F(560/590)
Assay type: functional
CONDITION DESCRIPTION: Concentration 20 uM, ASSAY_TEST Inhibition of Bacterial Growth, detection method Resazurin, Fluorescence (ex560/em590), MEDIA CAMHB, plate type 384well, CORNING #3640, time 18 hr

COMPOUND: O=C1NCN(CCO)CN1
READOUT UNITS: %
Inhibition: -3.91
//
COMPOUND: N#Cc1cnn(-c2cccc(Cl)c2)c1-n1cccc1
READOUT UNITS: %
Inhibition: -21.29
//
COMPOUND: CCOC(=O)C1CC(C)=C(C)CC1C(=O)O (configuration not stated)
READOUT UNITS: %
Inhibition: 13.31
//
COMPOUND: c1ccc(CSc2nc3c[nH]cnc-3n2)cc1
READOUT UNITS: %
Inhibition: -4.41
//
COMPOUND: O=C(Nc1ccc(Nc2ccncc2)cc1)c1ccc([N+](=O)[O-])cc1
READOUT UNITS: %
Inhibition: 12.27
//
COMPOUND: CCCOc1nc2c(c(=O)n(C)c(=O)n2C)n1C
READOUT UNITS: %
Inhibition: 10
//
COMPOUND: CCOc1ccc(NC(=O)N(O)C2(C#N)CCCCC2)cc1
READOUT UNITS: %
Inhibition: 8.44
